biological target: NDM-1 (Klebsiella pneumoniae); test: biochemical; conditions: cleavage of imipenem (100 uM) by NDM-1; read-out: Ki, Imipenem
pKi: −log10 of the molar value.
Parameter pKi: see the listing below.

- smilesData: "COc1ccc2c(c1C(=O)O)OB(O)[C@@H](Sc1nnc(SC(CN)CN)s1)C2"
  val: "> 8.00"
- smilesData: "Nc1nnc(S[C@H]2Cc3c(F)c(F)c(F)c(C(=O)O)c3OB2O)s1"
  val: "< 7.00"
- smilesData: "COc1ccc2c(c1C(=O)O)OB(O)[C@@H](Sc1nnc(NCCN3CCNCC3)s1)C2"
  val: "7.00 to 8.00"

Shifting focus to the compound that follows.
Recall and state the measured pKi for "O=C(O)c1c(F)ccc2c1OB(O)[C@@H](Sc1nncs1)C2" .
< 7.00

* * *

molecular target: NDM-1 (Klebsiella pneumoniae, UniProt C7C422); assay: biochemical; details: cleavage of biapenem (100 uM) by NDM-1; read-out: Ki, Biapenem
Sequence (C7C422 29-270, looked up, species assumed): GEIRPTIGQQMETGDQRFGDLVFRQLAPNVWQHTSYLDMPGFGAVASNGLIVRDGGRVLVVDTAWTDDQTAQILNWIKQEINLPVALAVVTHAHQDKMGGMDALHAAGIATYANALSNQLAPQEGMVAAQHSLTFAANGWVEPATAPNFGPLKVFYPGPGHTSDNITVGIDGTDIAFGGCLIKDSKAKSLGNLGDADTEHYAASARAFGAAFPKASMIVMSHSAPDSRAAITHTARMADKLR
readoutLabel: Ki

Here's what some known entries look like.
- compound: "NC(=O)CS[C@H]1Cc2cccc(C(=O)O)c2OB1O [Compound 3]"
  Ki: "> 100 nM"
- compound: "CSc1ccc2c(c1C(=O)O)OB(O)[C@@H](Sc1nnc(N)s1)C2 [Compound 30]"
  Ki: "10 to 100 nM"
- compound: "CO[C@H]1Cc2cccc(C(=O)O)c2OB1O [Compound 17]"
  Ki: "10 to 100 nM"
- compound: "Cn1cnnc1S[C@H]1Cc2cccc(C(=O)O)c2OB1O [Compound 15]"
  Ki: "10 to 100 nM"
- compound: "COc1ccc2c(c1C(=O)O)OB(O)[C@@H](Sc1nncs1)C2 [Compound 62]"
  Ki: "10 to 100 nM"
- compound: "Nn1cnnc1S[C@H]1Cc2cccc(C(=O)O)c2OB1O [Compound 14]"
  Ki: "< 10 nM"
- compound: "COc1ccc2c(c1C(=O)O)OB(O)[C@@H](Sc1nnc(N)s1)C2 [Compound 27]"
  Ki: "10 to 100 nM"
- compound: "Nc1nnc(S[C@H]2Cc3cccc(C(=O)O)c3OB2O)s1 [Compound 4]"
  Ki: "< 10 nM"
- compound: "O=C(O)c1cccc2c1OB(O)[C@@H](Sc1nncs1)C2 [Compound 1]"
  Ki: "10 to 100 nM"

Shifting focus to the compound that follows.
Recall and state the measured Ki for O=C(O)c1cccc2c1OB(O)[C@@H](OC1CNC1)C2 [Compound 18] .
< 10 nM

* * *

target: NDM-1 (Klebsiella pneumoniae); experiment: Inhibition of purified class B carbapenemase NDM-1 (Ki, imipenem substrate); assay type: biochemical; conditions: NDM-1, substrate imipenem; read-out: Ki NDM-1, Imipenem
pKi: −log10 of the molar value.
readoutLabel: pKi

Here's what some known entries look like.
- molecule: "NCCSc1nnc(S[C@H]2Cc3cccc(C(=O)O)c3OB2O)s1 [Compound 116]"
  pKi: "> 8.00"
- molecule: "COc1c(Cl)cc2c(c1C(=O)O)OB(O)[C@@H](Sc1nnc(N)s1)C2 [Compound 42]"
  pKi: "> 8.00"
- molecule: "CC(C)COc1ccc2c(c1C(=O)O)OB(O)[C@@H](Sc1nncs1)C2 [Compound 88]"
  pKi: "7.00 to 8.00"

Recall and state the measured pKi for Nc1nnc(CCS[C@H]2Cc3ccc(F)c(C(=O)O)c3OB2O)s1 [Compound 50] .
< 7.00

Recall and state the measured pKi for COCCOc1ccc2c(c1C(=O)O)OB(O)[C@@H](Sc1nncs1)C2 [Compound 89] .
7.00 to 8.00

Recall and state the measured pKi for COc1ccc2c(c1C(=O)O)OB(O)[C@@H](Sc1nnc(SC3CCNCC3)s1)C2 [Compound 112] .
7.00 to 8.00

Recall and state the measured pKi for COc1ccc2c(c1C(=O)O)OB(O)[C@@H](Sc1nnc(NC(CN)CN)s1)C2 [Compound 102] .
> 8.00

Recall and state the measured pKi for COc1ccc2c(c1C(=O)O)OB(O)[C@@H](Sc1nnc(NC(C)=O)s1)C2 [Compound 63] .
< 7.00

Recall and state the measured pKi for COc1ccc2c(c1C(=O)O)OB(O)[C@@H](SC1CN(S(N)(=O)=O)C1)C2 [Compound 76] .
< 7.00

Recall and state the measured pKi for O=C(O)c1cccc2c1OB(O)[C@@H](Sc1c[nH]nn1)C2 [Compound 12] .
7.00 to 8.00

Recall and state the measured pKi for C[S+]([O-])c1ccc2c(c1C(=O)O)OB(O)[C@@H](Sc1nnc(N)s1)C2 (stereo partly drawn) [Compound 34] .
7.00 to 8.00

* * *

biological target: purified class A, C and D enzymes (UniProt Q48434); construct: rows headed: Ki (CMY-2, NCF); other: purified CMY-2; nitrocefin reporter substrate; type: biochemical; conditions: read-out: Ki (CMY-2, NCF); purified CMY-2; nitrocefin reporter substrate
pKi: −log10 of the molar value.
readoutLabel: pKi

Here's what some known entries look like.
- compound: "O=C(O)c1cccc2c1OB(O)[C@@H](Sc1nnc[nH]1)C2"
  readoutLabel: "pKi"
  val: "6.00 to 7.00"
- compound: "O=C(O)[C@H]1/C(=C/CO)O[C@@H]2CC(=O)N21"
  readoutLabel: "pKi"
  val: "< 6.00"

Shifting focus to the compound that follows.
Report value: pKi, system: purified class A, C and D enzymes (UniProt Q48434), compound: "Nc1nnc(S[C@H]2Cc3cccc(C(=O)O)c3OB2O)s1"
> 7.00

* * *

Parameter pKi: see the listing below.
target: NDM-1 (Klebsiella pneumoniae); assay: biochemical; settings: cleavage of imipenem (100 uM) by NDM-1; read-out: Ki, Imipenem
pKi: −log10 of the molar value.

- molecule: "COc1ccc2c(c1C(=O)O)OB(O)[C@@H](Sc1nnc(CN3CCNCC3)n1N)C2"
  pKi: "7.00 to 8.00"
- molecule: "COc1ccc2c(c1C(=O)O)OB(O)[C@@H](Sc1nc(N)n[nH]1)C2"
  pKi: "> 8.00"
- molecule: "CO[C@H]1Cc2ccc(F)c(C(=O)O)c2OB1O"
  pKi: "> 8.00"
- molecule: "COc1ccc2c(c1C(=O)O)OB(O)[C@@H](Sc1nccs1)C2"
  pKi: "< 7.00"
- molecule: "COc1cc(OC)c(C(=O)O)c2c1C[C@H](Sc1nnc(N)s1)B(O)O2"
  pKi: "7.00 to 8.00"

Shifting focus to the molecule that follows.
Recall and state the measured pKi for "COc1ccc2c(c1C(=O)O)OB(O)[C@@H](Sc1nnc(N)s1)C2" .
7.00 to 8.00

* * *

target: purified class A, C and D enzymes (Enterobacter cloacae, UniProt P05364); assay type: biochemical; details: purified P99/AmpC of ECL; nitrocefin reporter substrate
Sequence (P05364 21-381): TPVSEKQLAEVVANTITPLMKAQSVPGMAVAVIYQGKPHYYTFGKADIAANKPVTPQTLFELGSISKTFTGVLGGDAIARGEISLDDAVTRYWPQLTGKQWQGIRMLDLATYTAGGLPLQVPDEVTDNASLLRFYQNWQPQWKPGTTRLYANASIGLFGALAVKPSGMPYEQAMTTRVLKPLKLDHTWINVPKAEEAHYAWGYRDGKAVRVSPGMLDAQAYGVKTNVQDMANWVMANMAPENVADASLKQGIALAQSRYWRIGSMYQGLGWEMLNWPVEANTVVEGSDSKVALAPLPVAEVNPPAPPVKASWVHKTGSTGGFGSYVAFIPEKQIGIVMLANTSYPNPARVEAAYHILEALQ
readoutLabel: Ki (P99/AmpC of ECL, NCF)

- smilesData: "COc1ccc2c(c1C(=O)O)OB(O)[C@@H](Sc1nnc(NC(C)=O)s1)C2"
  val: "X (Less than 0.1 μM)"
- smilesData: "Nc1nnc(S[C@H]2Cc3c(F)cc(F)c(C(=O)O)c3OB2O)s1"
  val: "X (Less than 0.1 μM)"
- smilesData: "COc1ccc2c(c1C(=O)O)OB(O)[C@@H](Sc1nnc(N(CCN)CCN)s1)C2"
  val: "Z (Greater than 1 μM)"
- smilesData: "COc1ccc2c(c1C(=O)O)OB(O)[C@@H](Sc1nnc(SCC(=N)N)s1)C2"
  val: "Y (0.1 μM to 1 μM)"
- smilesData: "COc1ccc2c(c1C(=O)O)OB(O)[C@@H](Sc1nncn1CCCC(=O)O)C2"
  val: "X (Less than 0.1 μM)"
- smilesData: "O=C(O)c1c(F)ccc2c1OB(O)[C@@H](Sc1nccs1)C2"
  val: "Z (Greater than 1 μM)"

Recall and state the measured Ki (P99/AmpC of ECL, NCF) for "O=C(O)c1c(OCC2CC2)ccc2c1OB(O)[C@@H](Sc1nncs1)C2" .
Y (0.1 μM to 1 μM)

Recall and state the measured Ki (P99/AmpC of ECL, NCF) for "COc1ccc2c(c1C(=O)O)OB(O)[C@@H](Sc1nccs1)C2" .
Y (0.1 μM to 1 μM)

Recall and state the measured Ki (P99/AmpC of ECL, NCF) for "COc1ccc2c(c1C(=O)O)OB(O)[C@@H](Sc1nncs1)C2" .
Y (0.1 μM to 1 μM)

Recall and state the measured Ki (P99/AmpC of ECL, NCF) for "CSCCOc1ccc2c(c1C(=O)O)OB(O)[C@@H](Sc1nncs1)C2" .
Y (0.1 μM to 1 μM)

Recall and state the measured Ki (P99/AmpC of ECL, NCF) for "Cn1ncc(C(N)=O)c1S[C@H]1Cc2ccc(F)c(C(=O)O)c2OB1O" .
Z (Greater than 1 μM)

Recall and state the measured Ki (P99/AmpC of ECL, NCF) for "N#CCS[C@H]1Cc2ccc(F)c(C(=O)O)c2OB1O" .
Z (Greater than 1 μM)
